target: IDH1 (R132C) (Homo sapiens, UniProt O75874, R132C); test: IDH enzyme assay, NADPH depletion by diaphorase/resazurin coupled detection; type: biochemical; settings: pre-incubated with enzyme for 1 h at room temperature; 500 μM a-Ketoglutarate+15 μM NADPH; 10-dose, 3-fold dilution from 10 μM; read-out: Compound IC50 (nM) IDH1 (R132C)
Sequence (O75874 whole entry R132C): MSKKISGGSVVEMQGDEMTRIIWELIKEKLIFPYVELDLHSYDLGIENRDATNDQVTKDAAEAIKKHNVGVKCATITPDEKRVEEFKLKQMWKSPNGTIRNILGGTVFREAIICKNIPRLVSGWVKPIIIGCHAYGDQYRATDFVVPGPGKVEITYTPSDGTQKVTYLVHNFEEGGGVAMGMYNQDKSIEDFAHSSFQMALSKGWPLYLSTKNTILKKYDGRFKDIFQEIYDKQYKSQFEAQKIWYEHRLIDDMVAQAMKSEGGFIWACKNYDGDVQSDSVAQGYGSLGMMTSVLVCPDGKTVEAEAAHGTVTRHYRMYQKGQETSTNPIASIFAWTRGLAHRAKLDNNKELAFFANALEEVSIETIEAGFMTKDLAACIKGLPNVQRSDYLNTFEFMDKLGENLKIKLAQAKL
property: IC50 (nM)
One number for each entry, in nM.

Examples from the recorded data:
- C=CC(=O)Nc1ccc(NC(=O)c2nn(Cc3ccc(F)cc3)c3c2CN(C(=O)c2ccc[nH]2)CC3C)s1 (stereo not shown) [ISO-2-19]: 35
- CC1CN(C(=O)c2ccc[nH]2)Cc2c(C(=O)Nc3cccc(NC(=O)CCl)c3)nn(Cc3ccc(F)cc3)c21 (stereo not shown) [ISO-2-5]: 2
- C=CC(=O)Nc1cc(NC(=O)c2nn(Cc3ccc(F)cc3)c3c2CN(C(=O)c2ccc[nH]2)C[C@@H]3C)ccc1OC [ISO-2-30-S]: 1180
- C=CC(=O)Nc1ccc(NC(=O)c2nn(Cc3ccc(F)cc3)c3c2CN(C(=O)c2ccc[nH]2)CC3C)cc1 (stereo not shown) [ISO-2-25]: 0.8
- C=CC(=O)Nc1ccc2c(Cn3nc(C(=O)Nc4cccc(C)c4)c4c3C(C)CN(C(=O)c3ccc[nH]3)C4)cccc2c1 (stereo not shown) [ISO-2-38]: 4

Record IC50 per entry; entries follow.
1. C=CC(=O)NCc1cc(F)ccc1Cn1nc(C(=O)Nc2cccc([C@H](C)O)c2)c2c1C(C)CN(C(=O)c1ccc[nH]1)C2 (stereo partly shown) [ISO-2-8]
2. C=CC(=O)Nc1cc(NC(=O)c2nn(Cc3ccc(F)cc3)c3c2CN(C(=O)c2ccc[nH]2)CC3C)ccc1OC (stereo not shown) [ISO-2-30]

Return:
1. 154
2. 8

---

I'd appreciate it if you could supply IC50 values for the items below.
biological target: IDH1 (R132H) (Homo sapiens, UniProt O75874, R132H); assay: IDH enzyme assay, NADPH depletion by diaphorase/resazurin coupled detection; assay type: biochemical; conditions: pre-incubated with enzyme for 1 h at room temperature; 1500 μM a-Ketoglutarate+15 μM NADPH; 10-dose, 3-fold dilution from 10 μM; read-out: Compound IC50 (nM) IDH1 (R132H)
Sequence (O75874 whole entry R132H): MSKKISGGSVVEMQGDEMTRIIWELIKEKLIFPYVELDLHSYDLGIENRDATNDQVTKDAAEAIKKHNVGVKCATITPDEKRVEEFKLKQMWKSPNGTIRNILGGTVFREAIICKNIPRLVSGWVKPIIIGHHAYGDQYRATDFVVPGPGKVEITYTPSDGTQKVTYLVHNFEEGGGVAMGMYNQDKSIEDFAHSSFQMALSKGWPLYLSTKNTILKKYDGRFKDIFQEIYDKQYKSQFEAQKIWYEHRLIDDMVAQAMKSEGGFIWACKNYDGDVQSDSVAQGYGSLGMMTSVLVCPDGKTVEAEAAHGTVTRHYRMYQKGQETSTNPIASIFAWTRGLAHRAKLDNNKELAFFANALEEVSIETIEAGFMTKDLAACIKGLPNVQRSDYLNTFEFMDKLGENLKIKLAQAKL
One number for each entry, in nM.

Answered examples (7):
• C=CC(=O)Nc1ccc2c(Cn3nc(C(=O)Nc4cccc(C)c4)c4c3C(C)CN(C(=O)c3ccc[nH]3)C4)cccc2c1 (centres unmarked) = 0.5
• Cc1cccc(NC(=O)c2nn(Cc3ccc(F)c(NC(=O)/C=C/CCl)c3)c3c2CN(C(=O)c2ccc[nH]2)CC3C)c1 (centres unmarked) = 0.5
• C=CC(=O)Nc1ccc(NC(=O)c2nn(Cc3ccc(F)cc3)c3c2CN(C(=O)c2ccc[nH]2)CC3C)cc1 (centres unmarked) = 0.6
• C=CC(=O)Nc1ccc(NC(=O)c2nn(Cc3ccc(F)cc3)c3c2CN(C(=O)c2ccc[nH]2)CC3C)s1 (centres unmarked) = 5
• C=CC(=O)Nc1cccc(CNC(=O)c2nn(Cc3ccc(F)cc3)c3c2CN(C(=O)c2ccc[nH]2)CC3C)c1 (centres unmarked) = 3150
• C=CC(=O)Nc1cc(Cn2nc(C(=O)Nc3cccc(C)c3)c3c2C(C)CN(C(=O)c2ccc[nH]2)C3)ccc1F (centres unmarked) = 18
• C=CC(=O)Nc1cc(F)ccc1Cn1nc(C(=O)Nc2cccc([C@H](C)O)c2)c2c1C(C)CN(C(=O)c1ccc[nH]1)C2 (some centres unmarked) = 153

Okay, now this compound:
Enquiry: Give the measured IC50 of C=CC(=O)Nc1cccc(NC(=O)c2nn(Cc3ccc(F)cc3)c3c2CN(C(=O)c2ccc[nH]2)CC3C)c1 (centres unmarked) .
Return: 49

---

Provide the reported IC50 of each item.
Target: IDH1 (R132C) (Homo sapiens, UniProt O75874, R132C)
Assay: IDH enzyme assay, NADPH depletion by diaphorase/resazurin coupled detection
Type: biochemical
Conditions: pre-incubated with enzyme for 1 h at room temperature; 500 μM a-Ketoglutarate+15 μM NADPH; 10-dose, 3-fold dilution from 10 μM; read-out: Compound IC50 (nM) IDH1 (R132C)
Procedure: Compounds were tested against 3 enzymes, as provided below. Compounds were tested in 10-dose IC50 mode with 3-fold serial dilution at a starting concentration of 10 μM. Control Compounds were tested in 10-dose IC50 mode with 3-fold serial dilution starting at 1 mM or 10 mM. Assay Format: The production or depletion of NADPH by IDH enzymes was measured by diaphorase/resazurin coupled detection. Fluorescence measurement: Ex/Em=535/590 by EnVision. […]
One number for each entry, in nM.

- C=CC(=O)Nc1cc(Cn2nc(C(=O)Nc3cccc([C@H](C)O)c3)c3c2C(C)CN(C(=O)c2ccc[nH]2)C3)ccc1F (some centres unmarked): 77
- C=CC(=O)Nc1ccc(NC(=O)c2nn(Cc3ccc(F)cc3)c3c2CN(C(=O)c2ccc[nH]2)C[C@H]3C)cc1: 21
- C=CC(=O)Nc1cc(F)ccc1Cn1nc(C(=O)Nc2cccc([C@H](C)O)c2)c2c1C(C)CN(C(=O)c1ccc[nH]1)C2 (some centres unmarked): 247
- C=CC(=O)NC1CC(NC(=O)c2nn(Cc3ccc(F)cc3)c3c2CN(C(=O)c2ccc[nH]2)CC3C)C1 (centres unmarked): 7370

Enquiry: Item under review: C=CC(=O)Nc1cccc(NC(=O)c2nn(Cc3ccc(F)cc3)c3c2CN(C(=O)c2ccc[nH]2)CC3C)c1 (centres unmarked) . Reported IC50?
Return: 121

---

biological target: IDH1 (R132H) (Homo sapiens, UniProt O75874, R132H); assay: IDH enzyme assay, NADPH depletion by diaphorase/resazurin coupled detection; format: biochemical; settings: pre-incubated with enzyme for 1 h at room temperature; 1500 μM a-Ketoglutarate+15 μM NADPH; 10-dose, 3-fold dilution from 10 μM; read-out: Compound IC50 (nM) IDH1 (R132H)
Record form. Attribute: IC50. Fill in for each entry.
Answers are plain numbers, in nM.

The cases that follow already have their IC50 on record.
- C=CC(=O)Nc1cc(NC(=O)c2nn(Cc3ccc(F)cc3)c3c2CN(C(=O)c2ccc[nH]2)CC3C)ccc1OC (stereo not shown): 1
- C=CC(=O)N1CCc2ccc(NC(=O)c3nn(Cc4ccc(F)cc4)c4c3CN(C(=O)c3ccc[nH]3)CC4C)cc21 (stereo not shown): 5
- CC1CN(C(=O)c2ccc[nH]2)Cc2c(C(=O)Nc3cccc(NC(=O)CCl)c3)nn(Cc3ccc(F)cc3)c21 (stereo not shown): 3

API: the following record is the query input.
Enquiry: Value lookup for IC50; key = C=CC(=O)NC1CC(NC(=O)c2nn(Cc3ccc(F)cc3)c3c2CN(C(=O)c2ccc[nH]2)CC3C)C1 (stereo not shown)
Return: 5480

---

molecular target: IDH1 (Homo sapiens); test: IDH enzyme assay, NADPH production by diaphorase/resazurin coupled detection; type: biochemical; conditions: IDH1 WT; pre-incubated with enzyme for 1 h at room temperature; 65 μM Isocitrate+50 μM NADP; 10-dose, 3-fold dilution from 10 μM; read-out: Compound IC50 (nM) IDH1
Sequence (O75874 whole entry): as the sequence (O75874 whole entry R132H) above, with H132R counted along it
Exercise: for every item that follows, state its recorded IC50.

* C=CC(=O)N1CC(NC(=O)c2nn(Cc3ccc(F)cc3)c3c2CN(C(=O)c2ccc[nH]2)CC3C)C1 (centres unmarked) [ISO-2-10] | > 10000 nM
* C=CC(=O)NCc1cc(Cn2nc(C(=O)Nc3cccc(C)c3)c3c2C(C)CN(C(=O)c2ccc[nH]2)C3)ccc1F (centres unmarked) [ISO-2-2] | > 10000 nM
* C=CC(=O)NCc1cc(F)ccc1Cn1nc(C(=O)Nc2cccc([C@H](C)O)c2)c2c1C(C)CN(C(=O)c1ccc[nH]1)C2 (some centres unmarked) [ISO-2-8] | > 10000 nM
* C=CC(=O)N1CCC(NC(=O)c2nn(Cc3ccc(F)cc3)c3c2CN(C(=O)c2ccc[nH]2)CC3C)C1 (centres unmarked) [ISO-2-9] | > 10000 nM
* C=CC(=O)Nc1ccc(NC(=O)c2nn(Cc3ccc(F)cc3)c3c2CN(C(=O)c2ccc[nH]2)CC3C)cc1 (centres unmarked) [ISO-2-25] | 5740 nM

# per-item lookup of IC50; items listed below
1. C=CC(=O)Nc1cc(F)ccc1Cn1nc(C(=O)Nc2cccc([C@H](C)O)c2)c2c1C(C)CN(C(=O)c1ccc[nH]1)C2 (some centres unmarked) [ISO-2-7]
2. C=CC(=O)Nc1cc(Cn2nc(C(=O)Nc3cccc([C@H](C)O)c3)c3c2C(C)CN(C(=O)c2ccc[nH]2)C3)ccc1F (some centres unmarked) [ISO-2-3]
3. C=CC(=O)Nc1cccc(Cn2nc(C(=O)Nc3cccc(C)c3)c3c2C(C)CN(C(=O)c2ccc[nH]2)C3)c1 (centres unmarked) [ISO-2-27]
4. C=CC(=O)Nc1cc(Cn2nc(C(=O)Nc3cccc(C)c3)c3c2C(C)CN(C(=O)c2ccc[nH]2)C3)ccc1F (centres unmarked) [ISO-2-1]
5. C=CC(=O)N1CCC(NC(=O)c2nn(Cc3ccc(F)cc3)c3c2CN(C(=O)c2ccc[nH]2)CC3C)CC1 (centres unmarked) [ISO-2-26]
6. C=CC(=O)Nc1cc(NC(=O)c2nn(Cc3ccc(F)cc3)c3c2CN(C(=O)c2ccc[nH]2)C[C@H]3C)ccc1OC [ISO-2-30-R]

Return:
1. > 10000 nM
2. ≥ 10000 nM
3. > 10000 nM
4. > 10000 nM
5. > 10000 nM
6. 2210 nM

I'm hoping you can list IC50 for every molecule here, please.
1. C=CC(=O)Nc1cccc(NC(=O)c2nn(Cc3ccc(F)cc3)c3c2CN(C(=O)c2ccc[nH]2)CC3C)c1 (centres unmarked) [ISO-2-4]
2. C=CC(=O)N1CCCC(NC(=O)c2nn(Cc3ccc(F)cc3)c3c2CN(C(=O)c2ccc[nH]2)CC3C)C1 (centres unmarked) [ISO-2-6]
3. C=CC(=O)Nc1ccc(NC(=O)c2nn(Cc3ccc(F)cc3)c3c2CN(C(=O)c2ccc[nH]2)C[C@H]3C)cc1 [ISO-2-25-R]

Return:
["> 10000 nM", "> 10000 nM", "2140 nM"]
